pIC50: −log10 of the molar value.
// cross-study collection: pIC50 for 5-hydroxytryptamine receptor 1A (Rattus norvegicus, UniProt P19327)
// condition not met strictly below 8 in pIC50; condition met otherwise

# check: pIC50 of O=C(O)c1ccc2[nH]cc(CCCCN3CCN(c4ccccc4)CC3)c2c1 is greater than or equal to 8
condition not met

Cl.O=C(NCCCCN1CCN(c2nsc3ccccc23)CC1)c1ccccc1 , same question.
condition met

COc1ccc2[nH]cc(CCCCN3CCN(c4ccc(NC(C)=O)cc4)CC3)c2c1 , same question.
condition met

COc1cccc2c1CCC(CCN1CCN(c3ccccc3)CC1)=C2 , same question.
condition not met

Switching to the query record.
# check: pIC50 of CCc1cc(Cl)c(O)c(C(=O)NCCCCN2CCN(c3nsc4ccccc34)CC2)c1OC.Cl is greater than or equal to 8
condition not met

---

// cross-study collection: IC50 for 5-hydroxytryptamine receptor 1A (Rattus norvegicus)
Hi! Could you send only the number? It should be in nM, unit omitted.

Check out these entries, answers already filled in.
Name the recorded IC50 for O=C(NCCCCN1CCN(c2nsc3ccccc23)CC1)c1nsc2ccccc12 .
18

CC1(C)SCN(CCCCN2CCN(c3cn(-c4ccccc4)c4ccccc34)CC2)C1=O , same question.
1730

New cases:
Name the recorded IC50 for O=C1c2ccccc2CN1CCCCCN1CCN(c2nsc3ccccc23)CC1 .
2.7

CCCN(CCC)CCCc1ccc(OC)c(OCCc2ccccc2)c1.Cl , same question.
373

CSc1cccc(N2CCN(CCCON3C(=O)CC4(CCCC4)CC3=O)CC2)c1 , same question.
50

N#Cc1cc2cc(N3CCN(CCCCc4c[nH]c5ccc(F)cc45)CC3)ccc2o1 , same question.
5

CC1SC2(CCCC2)C(=O)N1CCCCN1CCN(c2cn(-c3ccccc3)c3ccccc23)CC1 (stereo not given) , same question.
11700

---

# study-target: 5-hydroxytryptamine receptor 1A (Rattus norvegicus, UniProt P19327)
# Sequence (P19327 whole entry): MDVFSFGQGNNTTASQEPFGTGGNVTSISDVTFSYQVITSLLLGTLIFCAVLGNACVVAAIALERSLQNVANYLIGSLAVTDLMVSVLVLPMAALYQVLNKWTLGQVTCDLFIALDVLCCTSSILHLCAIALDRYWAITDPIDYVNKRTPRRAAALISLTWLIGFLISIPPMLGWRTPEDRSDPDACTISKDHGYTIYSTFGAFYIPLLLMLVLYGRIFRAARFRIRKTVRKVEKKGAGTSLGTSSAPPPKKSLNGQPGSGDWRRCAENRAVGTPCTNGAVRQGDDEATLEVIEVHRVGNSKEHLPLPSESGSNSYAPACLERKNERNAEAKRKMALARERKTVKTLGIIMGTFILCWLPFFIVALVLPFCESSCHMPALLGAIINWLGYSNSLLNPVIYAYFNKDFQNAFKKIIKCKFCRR
// cross-study collection: IC50 for 5-hydroxytryptamine receptor 1A (Rattus norvegicus, UniProt P19327)
Hi! Could you send only the number? It should be in nM, unit omitted.

Check out these entries, answers already filled in.
Name the recorded IC50 for CC(C)(O)C1SCN(CCCCN2CCN(c3csc4cc(F)ccc34)CC2)C1=O (stereo not drawn) .
91

COc1ccc(C(=O)NCCCCN2CCN(c3nsc4ccccc34)CC2)cc1.Cl , same question.
9

O=C1CSCN1CCCCN1CCN(c2ccc(F)cc2)CC1 , same question.
140

Cc1cccc(N2CCN(CCCCN3CSC(C)(C)C3=O)CC2)c1 , same question.
12

COc1ccc2c(c1)CCC=C2CCCN1CCN(c2ccccc2)CC1 , same question.
147

COc1ccccc1N1CCN(C[C@H](C(=O)NC(C)(C)C)c2ccccc2)CC1 , same question.
437

CC1(C)SCN(CCCCN2CCN(c3cc4ccccc4cn3)CC2)C1=O , same question.
629

NC(=O)OC(CCN1CCN(c2ccccc2Cl)CC1)c1ccccc1 (single isomer, unassigned) , same question.
52500

COc1ccccc1N1CCN(CCCCc2c[nH]c3ccc(C#N)cc23)CC1 , same question.
1

N#Cc1ccc2[nH]cc(CCCCN3CCN(c4ccc5oc(C#N)cc5c4)CC3)c2c1 , same question.
0.4

New cases:
Name the recorded IC50 for Fc1ccccc1-c1cccc(CN2CCN(c3ncccn3)CC2)c1 .
900

O=C1c2ccccc2CN1CCCCN1CCN(c2nsc3ccccc23)CC1 , same question.
7

COc1ccc(N2CCN(Cc3cn(-c4ccccc4)c(-c4ccccc4)n3)CC2)cc1 , same question.
8440

Fc1ccc(-c2cncc(CN3CCN(c4ccccc4)CC3)c2)cc1 , same question.
70

Cl.O=C(NCCCCN1CCN(c2nsc3ccccc23)CC1)c1cc(Cl)cc(Cl)c1 , same question.
49

COc1ccccc1N1CCN(CCCCC2CCCc3c(OC)cccc32)CC1 (stereo not drawn) , same question.
1.73

CN(CCCCN1CCN(c2nsc3ccccc23)CC1)C(=O)c1nsc2ccccc12 , same question.
18.6

Cl.Nc1ccc(C(=O)NCCCCN2CCN(c3nsc4ccccc34)CC2)cc1 , same question.
23

COc1cccc2c1CCC[C@H]2CCCN1CCN(c2ccccc2)CC1 , same question.
2.4

O=C(NCCN1CCN(c2ccccc2)CC1)c1cnc2ccccc2n1 , same question.
1680

O=C1CSCN1CCCCN1CCN(c2ccccc2Cl)CC1 , same question.
23

COc1cccc(C(=O)NCCCCN2CCN(c3nsc4ccccc34)CC2)c1N.Cl , same question.
4.1

COc1ccc(NC(=O)NCCN2CCC(c3c[nH]c4cc(F)ccc34)CC2)cc1OCCN(C)C , same question.
233

Fc1cccc2nc(N3CCNCC3)c3cccn3c12 , same question.
268

CC1(C)SCN(CCCCN2CCN(c3cccc(C(F)(F)F)c3)CC2)C1=O , same question.
7

Fc1ccc2c(c1)nc(N1CCNCC1)c1cccn12 , same question.
151

N#Cc1ccc2[nH]cc(CCCCN3CCN(c4ccc5c(c4)CCO5)CC3)c2c1 , same question.
4

---

// cross-study collection: IC50 for 5-hydroxytryptamine receptor 1A (Rattus norvegicus)
Hi! Could you send only the number? It should be in nM, unit omitted.

Check out these entries, answers already filled in.
Give the reported IC50 for COc1ccc(NC(=O)N2CCC(c3c[nH]c4cc(F)ccc34)CC2)cc1N1CCN(C)CC1 (system: 5-hydroxytryptamine receptor 1A (Rattus norvegicus)).
667

COc1ccccc1N1CCN(CCCON2CCC3(CCCC3)CC2=O)CC1 , same question.
70

Cl.Nc1cccc(C(=O)NCCCCN2CCN(c3nsc4ccccc34)CC2)c1 , same question.
6.6

O=C1c2ccccc2CCN1CCCCN1CCN(c2nsc3ccccc23)CC1 , same question.
0.64

COc1ccccc1CN1CCN(C2CCC(O)(c3ccc4c(c3)OCO4)CC2)CC1 (stereo not given) , same question.
43

CNc1ccccc1C(=O)NCCCCN1CCN(c2nsc3ccccc23)CC1.Cl , same question.
10

New cases:
Give the reported IC50 for COc1ccc2[nH]cc(CCCCN3CCN(c4cc(OC)c(OC)c(OC)c4)CC3)c2c1 (system: 5-hydroxytryptamine receptor 1A (Rattus norvegicus)).
333

CCCCCOc1ccc2[nH]cc(CCCCN3CCN(c4ccc(OC)cc4)CC3)c2c1 , same question.
200

COc1ccc(NC(=O)N2CCC(c3c[nH]c4ccc(C#N)cc34)CC2)cc1N1CCN(C)CC1 , same question.
233

NC(=O)c1ccc2[nH]cc(C3=CCC(NCCCCNC4CC=C(c5c[nH]c6ccc(C(N)=O)cc56)CC4)CC3)c2c1 (stereo not given) , same question.
14.5

---

// cross-study collection: pIC50 for 5-hydroxytryptamine receptor 1A (Rattus norvegicus)
# study-target: 5-hydroxytryptamine receptor 1A (Rattus norvegicus)
# Sequence (P19327 whole entry): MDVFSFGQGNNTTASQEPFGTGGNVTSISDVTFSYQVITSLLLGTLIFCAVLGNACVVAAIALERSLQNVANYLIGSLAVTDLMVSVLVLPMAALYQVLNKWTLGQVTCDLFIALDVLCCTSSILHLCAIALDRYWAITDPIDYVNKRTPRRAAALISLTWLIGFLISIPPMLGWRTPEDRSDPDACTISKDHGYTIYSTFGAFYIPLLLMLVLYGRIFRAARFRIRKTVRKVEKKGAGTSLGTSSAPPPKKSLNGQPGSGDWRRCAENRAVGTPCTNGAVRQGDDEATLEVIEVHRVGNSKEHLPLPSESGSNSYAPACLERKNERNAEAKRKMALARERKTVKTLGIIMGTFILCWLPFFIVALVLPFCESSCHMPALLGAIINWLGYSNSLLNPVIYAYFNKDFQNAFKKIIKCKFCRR
Reminder that pIC50 is minus the log10 of a molar concentration.

Name the recorded pIC50 for COc1ccc(C2(O)CCC(N3CCN(Cc4ccccc4)CC3)CC2)cc1 (stereo unspecified) .
7.30

New cases:
Name the recorded pIC50 for CCOc1ccc2[nH]cc(CCCCN3CCN(c4ccc(OC)cc4)CC3)c2c1 .
8.70

CCOc1cccc(CN2CCN(C3CCC(O)(c4ccc5c(c4)OCO5)CC3)CC2)c1 (stereo unspecified) , same question.
8.17

COc1ccc2c(c1)C(CCCN1CCN(c3ccccc3)CC1)=CCC2 , same question.
6.83

Cl.NNc1ccccc1C(=O)NCCCCN1CCN(c2nsc3ccccc23)CC1 , same question.
8.42

COc1ccccc1N1CCN(CCCCN2C(=O)CSC2(C)C)CC1 , same question.
8.00

Fc1ccc(-c2cncc(CN3CCN(c4ncccn4)CC3)c2)cc1 , same question.
7.00

O=C1CC2(CCCC2)CCN1OCCCN1CCN(c2nsc3ccccc23)CC1 , same question.
7.52

CC(C)[C@H](Nc1ccccc1C(=O)NCCCCN1CCN(c2nsc3ccccc23)CC1)C(=O)O.Cl , same question.
8.27

CC1(C)SCN(CCCCN2CCN(c3nc4ccccc4s3)CC2)C1=O , same question.
5.86

COc1ccccc1OCCNCCC(=O)N1CCCOc2c1cnn(C)c2=O , same question.
7.71
